# target.system: human LPA1 (Homo sapiens, UniProt Q92633)
# Construct: the full-length cDNA for human LPA1 was obtained by PCR of the reverse transcription reaction
# Sequence (Q92633 whole entry): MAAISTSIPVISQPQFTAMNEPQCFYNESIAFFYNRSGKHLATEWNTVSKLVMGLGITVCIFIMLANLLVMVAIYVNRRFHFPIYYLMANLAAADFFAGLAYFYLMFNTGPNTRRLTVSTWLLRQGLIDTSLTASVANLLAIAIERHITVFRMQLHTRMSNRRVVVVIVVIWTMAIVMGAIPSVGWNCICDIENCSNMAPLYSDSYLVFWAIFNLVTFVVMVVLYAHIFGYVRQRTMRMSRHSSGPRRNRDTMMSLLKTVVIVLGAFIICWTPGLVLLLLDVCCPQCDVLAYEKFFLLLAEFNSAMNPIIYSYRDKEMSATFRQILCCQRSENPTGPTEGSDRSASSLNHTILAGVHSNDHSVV
# procedure.text: LPA1 calcium flux assay
# experimental.context: CHO cells expressing human LPA1, stimulated with 10 nM LPA; read-out: HLPA1 Ca Flux IC50
pIC50: −log10 of the molar value.
Item-by-item account of pIC50

Worked set:
Cc1noc(-c2ccc(-c3ccc(C4(C(=O)O)CC4)cc3)cc2)c1NC(C)COc1ccccc1 (stereo not shown); > 6.52
Cc1noc(-c2ccc(-c3ccc(C4CC4C(=O)O)cc3)cc2)c1[C@@H](O)COCc1ccccc1 (stereo partly shown); > 6.52
Cc1noc(-c2ccc(-c3ccc(C4(C(=O)O)CC4)cc3)cc2)c1C(O)CSC(C)(C)C (stereo not shown); > 6.52
Cc1noc(-c2ccc(-c3ccc(C4(CC(=O)O)CC4)cc3)cc2)c1C(O)CCCc1ccccc1 (stereo not shown) [Compound 1-140]; > 6.52
Cc1noc(-c2ccc(-c3ccc(C4(C(=O)O)CC4)cc3)cc2)c1CNC(=O)C1(c2ccccc2)CC1; > 6.52
CCCCCCCCCCCCOc1cccc(Nc2c(C)noc2-c2ccc(-c3ccc(C4(C(=O)O)CC4)cc3)cc2)n1; 4.30 to 6.00

Data request: Requested read-out: pIC50. Entry: Cc1noc(-c2ccc(-c3ccc(C(C)C(=O)O)cc3)cc2)c1CC(F)(F)CCc1ccccc1 (stereo not shown)
Data returned: > 6.52

Data request: Data request, read-out pIC50, for `COc1cccc(Nc2c(C)noc2-c2ccc(-c3ccc(C4(C(=O)O)CC4)cc3)cc2)n1`
Data returned: > 6.52

Data request: Would you mind telling me what pIC50 value was observed for Cc1noc(-c2ccc(-c3ccc(C(Cc4ccccc4)C(=O)O)cc3)cc2)c1C(O)CCCc1ccccc1 (stereo not shown) ?
Data returned: > 6.52

Data request: Give the measured pIC50 of `Cc1noc(-c2ccc(-c3ccc(CCC(=O)O)cc3)cc2)c1[C@H](O)CSCc1cccc(C(F)(F)F)c1` .
Data returned: > 6.52

Data request: State the recorded pIC50 for this entry: `Cc1noc(-c2ccc(-c3ccc(C4(C(=O)O)CC4)cc3)cc2)c1CCC(=O)NC(C)(C)c1ccccc1`
Data returned: 4.30 to 6.00

Data request: Any idea what pIC50 was measured for Cc1noc(-c2ccc(-c3ccc(C4(CC(=O)O)CC4)cc3)cc2)c1NC(CCc1ccccc1)c1ccccc1 (stereo not shown) ?
Data returned: 6.00 to 6.52

Data request: I'd like to know its pIC50. The compound in question is Cc1noc(-c2ccc(-c3ccc(CCC(=O)O)cc3)cc2)c1NC(C)CCc1cccc(C(F)(F)F)c1 (single isomer, unassigned) [Compound 1-235]
Data returned: > 6.52

Data request: So what's the measured pIC50 for this one? `Cc1noc(-c2ccc(-c3ccc(C4(C(=O)O)CC4)cc3)cc2)c1CCC(=O)NCc1ccccc1`
Data returned: 4.30 to 6.00

Data request: Bench note: what pIC50 did `Cc1noc(-c2ccc(-c3ccc(C4(C(=O)O)CC4)cc3)cc2)c1C/C(CCc1ccccc1)=N/O` show?
Data returned: > 6.52
